Molecular target: T1, bacterially produced human IL-6 (human, UniProt P05231 30-212)
T1 construct: also called bactIL-6; prokaryotic IL-6
Assay: SPR; purified Fab over biotinylated IL-6 on streptavidin chip
VALUE TYPE: Kd (µM)
Field: numeric (µM). Do not append units.

Fab 18C7 (Fab, V domains shown, Fab; also called 18C7 (090-423)) VH: EVQLVESGPGLVKPSQTLSLTCTVSGGSITASFDAWSWIRQPPGKGLEWMGVIAYDGSTYYSPSLKSRTSISRDTSKNQFSLQLSSVTPEDTAVYYCARKSSWLIGYGMDYWGKGTLVTVSS VL: QAGLTQPSALSVTLGQTAKITCQGGSLGSSYAHWYQQKPGQAPVLVIYDDDSRPSGIPERFSGSSSGGRATLTISGAQAEDEGDYYCQSADSSGNAAVFGGGTHLTVLG = 0.0175
Fab 18C9 (Fab, V domains shown, Fab) VH: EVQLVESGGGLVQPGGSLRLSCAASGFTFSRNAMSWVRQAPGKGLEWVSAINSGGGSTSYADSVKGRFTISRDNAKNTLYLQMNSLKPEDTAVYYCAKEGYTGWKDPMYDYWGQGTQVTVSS VL: LNFMLTQPSALSVTLGQTAKITCQGGSLGSRYAHWYQQKPGQAPVLVIYDDDSRPSGIPERFSGSSSGGRATLTISGAQAEDDGDYYCQSADSSGNASVFGGGTHLTVLG = 0.0214

Now for another entry.
Data point: Fab 24C9 (Fab, V domains shown, Fab) VH: QVQLVESGGGLVQPGGSLRLSCAASGFTFSSYRMYWVRQPPGKGLEWVSAISAGGGSTYYGDSVKGRFTISRDNAKNTVYLQMNSLKPEDTALYYCKKSTWADGESDYWGQGTQVTVSS VL: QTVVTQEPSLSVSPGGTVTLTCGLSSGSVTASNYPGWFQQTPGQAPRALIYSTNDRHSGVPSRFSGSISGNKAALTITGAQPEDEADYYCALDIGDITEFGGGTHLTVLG ; Kd = 0.000661
